Provenance of the data: PubChem BioAssay AID1345085

system: JEG-3; assay: Confirmatory qHTS for gynecologic anti-cancer compounds from libraries of approved drugs and bioactive compounds; conditions: gynecologic cancer cell panel viability, ATPlite luminescence, 48 h; series mostly up to 57.6 µM; also: nearly all actives have a fitted effect of over 55% in size
Results filed as inconclusive are left out. Active and inactive are the calls of the source. Calls follow the shape of the dose curve; as a rule, active = well fitted cell-killing curve with a large enough effect; inconclusive = small, poorly fitted or top-dose-only effect, or effect the other way; inactive = no such curve, though single readings can be large or run the other way.
API: response.call in active, inactive

compound	assigned_category
CC1=C(CO)C(=O)O[C@@H]([C@@H](C)[C@H]2CC[C@H]3[C@@H]4C[C@H]5O[C@]56[C@@H](O)C=CC(=O)[C@]6(C)[C@H]4CC[C@]23C)C1	active
CC(Oc1ccc2[nH]nc(/C=C/c3cnn(CCO)c3)c2c1)c1c(Cl)cncc1Cl (stereo not given)	active
CCS(=O)(=O)N1CCN(c2ccc(Nc3ncc(C(N)=O)c(NC4CC4)n3)cc2)CC1	active

Challenge: What was the test verdict on "CC(C)n1nc(-c2cc3cc(O)ccc3[nH]2)c2c(N)ncnc21" ?
Response given: active

Challenge: Ok, now "CCCC(=O)O[C@]1(C(=O)CCl)[C@@H](C)C[C@H]2[C@@H]3CCC4=CC(=O)C=C[C@]4(C)[C@@]3(F)C(=O)C[C@@]21C"
Response given: active
